- Tested System: MMP-2 (Homo sapiens)
- Construct: made in house; host or cells: MMP-2-transfected p2AHT2 cells
- Sequence (P08253 110-660, species assumed): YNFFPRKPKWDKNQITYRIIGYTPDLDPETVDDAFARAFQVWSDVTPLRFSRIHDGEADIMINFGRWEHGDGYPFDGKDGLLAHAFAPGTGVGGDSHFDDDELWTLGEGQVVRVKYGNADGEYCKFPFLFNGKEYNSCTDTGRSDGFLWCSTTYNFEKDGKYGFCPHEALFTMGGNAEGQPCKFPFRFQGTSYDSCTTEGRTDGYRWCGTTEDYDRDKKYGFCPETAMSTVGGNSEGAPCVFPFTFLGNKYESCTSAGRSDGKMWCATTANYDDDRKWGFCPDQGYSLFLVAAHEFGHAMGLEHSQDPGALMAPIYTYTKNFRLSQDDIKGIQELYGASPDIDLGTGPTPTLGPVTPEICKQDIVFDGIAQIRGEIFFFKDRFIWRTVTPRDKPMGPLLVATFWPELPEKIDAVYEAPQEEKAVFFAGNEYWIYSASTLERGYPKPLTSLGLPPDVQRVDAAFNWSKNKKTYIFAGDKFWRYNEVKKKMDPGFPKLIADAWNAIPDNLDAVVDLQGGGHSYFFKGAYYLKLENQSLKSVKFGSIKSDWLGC
- Experiment Description: MMP-2 inhibition (in vitro Ki)
- Assay type: biochemical
- Settings: Table 9; read-out: MMP-2 Ki (IC-50)
Parameter: Ki (nM)

INSERT INTO measurements (compound_structure_string, parameter, scale_unit, measured) VALUES
  ('Cc1ccc(N(C)C(=O)CCCC2CCN(S(=O)(=O)C3(C(=O)NO)CCOCC3)CC2)cc1', 'Ki', 'nM', 358),
  ('CN(C(=O)CCCCC1CCN(S(=O)(=O)C2(C(=O)NO)CCOCC2)CC1)C1CCCCC1', 'Ki', 'nM', 240),
  ('O=C(NO)C1(S(=O)(=O)N2CCC(c3ccc(CCC(F)(F)C(F)(F)F)cn3)CC2)CCN(c2ccccc2)CC1', 'Ki', 'nM', 3.04),
  ('O=C(NO)C1(S(=O)(=O)N2CCC(c3ccc(-c4nccs4)cn3)CC2)CCOCC1', 'Ki', 'nM', 8.83),
  ('CCS(=O)(=O)c1ccc(N2CCN(S(=O)(=O)C3(C(=O)NO)CCOCC3)CC2)cc1', 'Ki', 'nM', 63),
  ('O=C(NO)C1(S(=O)(=O)N2CCN(c3ccc(-c4cccs4)cn3)CC2)CCOCC1', 'Ki', 'nM', 0.54),
  ('CN(C(=O)CCCCC1CCN(S(=O)(=O)C2(C(=O)NO)CCOCC2)CC1)c1ccc(OC(F)(F)F)cc1', 'Ki', 'nM', 225),
  ('O=C(CO)N1CCC(C(=O)NO)(S(=O)(=O)N2CCC(c3ccc(CCC(F)(F)C(F)(F)F)cn3)CC2)CC1', 'Ki', 'nM', 0.56),
  ('O=C(NO)C1(S(=O)(=O)N2CCC(CCc3ccccc3)CC2)CCOCC1', 'Ki', 'nM', 1.1),
  ('O=C(NO)C1(S(=O)(=O)N2CCN(c3ccc(-c4nnn(CC(F)(F)F)n4)cc3)CC2)CCOCC1', 'Ki', 'nM', 0.06),
  ('O=C(NO)C1(S(=O)(=O)N2CCC(c3ccc(CCC(F)(F)C(F)(F)F)cn3)CC2)CCN(c2ccc(Cl)cc2)CC1', 'Ki', 'nM', 14.6),
  ('O=C(NO)C1(S(=O)(=O)N2CCN(c3ccc(-c4cccnc4)c(F)c3)CC2)CCOCC1', 'Ki', 'nM', 0.18),
  ('O=C(/C=C/C=C/C1CCN(S(=O)(=O)C2(C(=O)NO)CCOCC2)CC1)N1CCN(c2ccccc2)CC1', 'Ki', 'nM', 356),
  ('O=C(/C=C/C=C/C1CCN(S(=O)(=O)C2(C(=O)NO)CCOCC2)CC1)N1CCc2ccccc2C1', 'Ki', 'nM', 228),
  ('O=C(NO)C1(S(=O)(=O)N2CCN(c3ccc(-c4nnn(CC5CC5)n4)cc3)CC2)CCOCC1', 'Ki', 'nM', 0.07);

###

- Tested System: MMP-13 (Homo sapiens, UniProt P45452)
- Construct: made in house; host or cells: baculovirus / insect cells
- Experiment Description: In vitro MMP inhibition, IC50 determination (fluorogenic substrate I)
- Assay type: biochemical
- Settings: value in parenthesis; read-out: MMP-13 (IC-50)
IC50 vs 0.6 nM: less than gives Satisfied; not less than gives Not satisfied.

INSERT INTO assay_data (molecule, cat) VALUES
  ('COCCN1CCC(C(=O)NO)(S(=O)(=O)N2CCN(c3ccc(OC(F)(F)F)cc3)CC2)CC1 [Example 202]', 'Satisfied'),
  ('COCCN1CCC(C(=O)NO)(S(=O)(=O)N2CCN(c3ccc(CCC4CCCC4)cc3)CC2)CC1 [Example 182]', 'Satisfied'),
  ('COCCN1CCC(C(=O)NO)(S(=O)(=O)N2CCN(c3ccc(CC4CCC4)cc3)CC2)CC1 [Example 183]', 'Not satisfied'),
  ('COCCN1CCC(C(=O)NO)(S(=O)(=O)N2CCN(c3ccc(Br)cc3)CC2)CC1 [Example 201]', 'Not satisfied'),
  ('COCCN1CCC(C(=O)NO)(S(=O)(=O)N2CCN(c3ccc(C#N)cc3)CC2)CC1 [Example 186]', 'Not satisfied'),
  ('CCc1ccc(N2CCN(S(=O)(=O)C3(C(=O)NO)CCN(CCOC)CC3)CC2)cc1 [Example 193]', 'Not satisfied'),
  ('COCCN1CCC(C(=O)NO)(S(=O)(=O)N2CCN(c3nc4ccccc4o3)CC2)CC1 [Example 196]', 'Not satisfied');

###

- Tested System: MMP-1 (Homo sapiens)
- Construct: made in house; host or cells: MMP-1-transfected HT-1080 cells (spent media)
- Sequence (P03956 100-469): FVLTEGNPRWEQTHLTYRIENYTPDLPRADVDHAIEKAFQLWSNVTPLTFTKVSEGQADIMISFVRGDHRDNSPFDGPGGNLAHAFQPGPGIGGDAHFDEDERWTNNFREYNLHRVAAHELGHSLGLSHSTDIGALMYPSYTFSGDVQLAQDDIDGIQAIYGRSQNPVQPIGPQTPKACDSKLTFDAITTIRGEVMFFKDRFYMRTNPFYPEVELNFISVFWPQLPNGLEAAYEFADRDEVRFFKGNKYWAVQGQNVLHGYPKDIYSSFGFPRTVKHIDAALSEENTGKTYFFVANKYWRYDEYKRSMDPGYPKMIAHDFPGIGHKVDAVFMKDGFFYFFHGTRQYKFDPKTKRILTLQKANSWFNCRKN
- Experiment Description: MMP-1 inhibition (in vitro Ki)
- Assay type: biochemical
- Settings: Table 9; read-out: MMP-1 Ki (IC-50)
Parameter: Ki (µM)

INSERT INTO results (compound_structure_string, tested_system, parameter, value_comparator, measured) VALUES
  ('CN(C(=O)CCCCC1CCN(S(=O)(=O)C2(C(=O)NO)CCOCC2)CC1)c1ccccc1', 'MMP-1 (Homo sapiens)', 'Ki', '=', 2.82),
  ('O=C(NO)C1(S(=O)(=O)N2CCN(c3ccc(CCCC(F)(F)F)cc3)CC2)CCN(CC(F)(F)F)CC1', 'MMP-1 (Homo sapiens)', 'Ki', '>', 10),
  ('CC(C)CN(C)C(=O)/C=C/C=C/C1CCN(S(=O)(=O)C2(C(=O)NO)CCOCC2)CC1', 'MMP-1 (Homo sapiens)', 'Ki', '=', 6.2),
  ('CC(C)CCc1cnc(C2CCN(S(=O)(=O)C3(C(=O)NO)CCOCC3)CC2)cn1', 'MMP-1 (Homo sapiens)', 'Ki', '>', 10);

###

Reported Ki values for the following compounds.
- Tested System: MMP-14 (Homo sapiens)
- Construct: The catalytic domain enzyme was expressed in E. coli inclusion bodies, solubilized in urea; made in house
- Experiment Description: In vitro MMP inhibition, Ki determination (fluorogenic substrate II)
- Format: biochemical
- Settings: value not in parenthesis; read-out: MMP-14 Ki
Parameter: Ki (µM)

INSERT INTO results (compound_structure_string, scale_unit, value_comparator, measured) VALUES
  ('CCCCOc1ccc(N2CCN(S(=O)(=O)C3(C(=O)NO)CCN(c4nc5ccccc5s4)CC3)CC2)cc1', 'µM', '=', 9.86),
  ('O=C(NO)C1(S(=O)(=O)N2CCN(c3cnc(CCCC(F)(F)F)cn3)CC2)CCOCC1', 'µM', '>', 10),
  ('CCCCOc1ccc(N2CCN(S(=O)(=O)C3(C(=O)NO)CCN(C(=O)NCCOC)CC3)CC2)cc1', 'µM', '=', 2.6),
  ('CCCCOc1ccc(N2CCN(S(=O)(=O)C3(C(=O)NO)CCN(c4ccsc4)CC3)CC2)cc1', 'µM', '=', 7.1),
  ('O=C(NO)C1(S(=O)(=O)N2CCN(c3ccc(OCCN4CCCC4)cc3)CC2)CCOCC1', 'µM', '>', 10),
  ('CCCCOc1ccc(N2CCN(S(=O)(=O)C3(C(=O)NO)CCN(c4cccnc4)CC3)CC2)cc1', 'µM', '=', 3.6),
  ('O=C(NO)C1(S(=O)(=O)N2CCN(c3cnc(CCC(F)(F)F)cn3)CC2)CCOCC1', 'µM', '=', 4.57),
  ('O=C(NO)C1(S(=O)(=O)N2CCN(c3ccc(OCCCCF)cc3)CC2)CCOCC1', 'µM', '=', 2.8);

###

- Tested System: MMP-9 (Homo sapiens, UniProt P14780)
- Construct: made in house; host or cells: MMP-9-transfected HT1080 cells (spent media)
- Sequence (P14780 107-707 limits assumed): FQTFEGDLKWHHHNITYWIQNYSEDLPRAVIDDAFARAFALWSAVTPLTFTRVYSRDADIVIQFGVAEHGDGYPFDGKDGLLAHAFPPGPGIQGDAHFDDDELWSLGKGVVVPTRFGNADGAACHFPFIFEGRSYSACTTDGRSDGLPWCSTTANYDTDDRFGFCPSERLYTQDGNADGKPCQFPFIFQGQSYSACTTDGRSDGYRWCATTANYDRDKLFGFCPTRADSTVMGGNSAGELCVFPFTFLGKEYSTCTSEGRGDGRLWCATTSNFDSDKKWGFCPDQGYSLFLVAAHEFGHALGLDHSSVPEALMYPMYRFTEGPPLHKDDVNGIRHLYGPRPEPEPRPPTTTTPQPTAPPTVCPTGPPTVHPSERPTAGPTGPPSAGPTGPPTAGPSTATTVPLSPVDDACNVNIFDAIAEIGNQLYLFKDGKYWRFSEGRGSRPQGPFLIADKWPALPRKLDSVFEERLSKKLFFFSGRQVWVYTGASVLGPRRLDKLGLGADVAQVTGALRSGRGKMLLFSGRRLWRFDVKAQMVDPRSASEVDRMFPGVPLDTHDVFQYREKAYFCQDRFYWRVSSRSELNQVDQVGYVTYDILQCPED
- Experiment Description: In vitro MMP inhibition, Ki determination (fluorogenic substrate II)
- Assay type: biochemical
- Settings: value not in parenthesis
pKi: −log10 of the molar value.
Answer not fulfilled if pKi is under 8, and fulfilled if it is 8 or more.

INSERT INTO results (compound, cat) VALUES
  ('CCCCOc1ccc(N2CCN(S(=O)(=O)C3(C(=O)NO)CCN(C(=O)c4ccco4)CC3)CC2)cc1 [Example 156]', 'fulfilled'),
  ('O=C(c1cccnc1)N1CCC(C(=O)NO)(S(=O)(=O)N2CCN(c3ccc(OCCCC(F)(F)F)cc3)CC2)CC1 [Example 122]', 'fulfilled'),
  ('CCCCOc1ccc(N2CCN(S(=O)(=O)C3(C(=O)NO)CCN(c4nc5ccccc5o4)CC3)CC2)cc1 [Example 150]', 'not fulfilled'),
  ('CCCCOc1ccc(N2CCN(S(=O)(=O)C3(C(=O)NO)CCN(c4ccc(C#N)cc4)CC3)CC2)cc1 [Example 225]', 'not fulfilled'),
  ('O=C(NO)C1(S(=O)(=O)N2CCN(c3ccc(COCC(F)(F)F)cc3)CC2)CCOCC1 [Example 72]', 'fulfilled'),
  ('CCCCOc1ccc(N2CCN(S(=O)(=O)C3(C(=O)NO)CCN(c4ccc(OCCOC)nn4)CC3)CC2)cc1 [Example 129]', 'fulfilled');
